Data origin: the supplement of paper PMC7877785

Items are presented alongside their recorded self-splicing fitness (ln).
Experiment: self-splicing fitness, log relative to wild type (ln ratio); higher = more splicing; Tetrahymena group I intron in knt gene, E. coli kanamycin selection, DiMSum; sequences stand for … in CUCUCU…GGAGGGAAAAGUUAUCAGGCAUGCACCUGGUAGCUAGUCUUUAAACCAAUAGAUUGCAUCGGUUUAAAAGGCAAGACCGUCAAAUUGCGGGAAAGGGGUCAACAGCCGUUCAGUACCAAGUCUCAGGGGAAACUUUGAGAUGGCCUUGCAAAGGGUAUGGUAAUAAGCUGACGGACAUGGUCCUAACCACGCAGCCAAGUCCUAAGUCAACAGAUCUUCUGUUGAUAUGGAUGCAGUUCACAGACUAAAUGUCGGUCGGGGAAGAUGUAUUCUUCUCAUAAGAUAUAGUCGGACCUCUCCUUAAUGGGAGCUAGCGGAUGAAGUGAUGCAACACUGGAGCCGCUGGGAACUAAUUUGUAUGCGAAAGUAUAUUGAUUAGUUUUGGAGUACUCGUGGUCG;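 also: selection with 25 µg/mL kanamycin versus none on LB agar overnight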
Details: 37 °C
Please reply with the number alone, leaving off any unit.

Chain Sequence	Reported Result
AAAUAGCAAUAUUACGGAGC	-2.26
ACAAAGCAAUAUUACGGACA	-0.782
UGGCAGCAAUAUUACGGCAU	-0.388
GGAAAGCAAUAUUACGAGUG	-1.85
CGAUAGCAAUAUUACGCCGA	-2.05
ACGUAGCAAUAUUACGUCAG	-2.34
GUCCAGCAAUAUUACGGCCG	-2.69
GACCAGCAAUAUUACGGCAU	0.553
UAGAAGCAAUAUUACGAAUG	-0.298
UAACAGCAAUAUUACGGAGA	-1.1

Enquiry: State its self-splicing fitness (ln) for this sequence: GACAAGCAAUAUUACGGUCC
Return: -1.83

Enquiry: For the sequence CGAAAGCAAUAUUACGUAGA , report self-splicing fitness (ln).
Return: -1.49

Enquiry: Identify measured self-splicing fitness (ln) associated with GUGGAGCAAUAUUACGGGUA
Return: -2.4

* * *

Assay: self-splicing fitness, log relative to wild type (ln ratio); higher = more splicing; Tetrahymena group I intron in knt gene, E. coli kanamycin selection, DiMSum; sequences stand for … in CUCUCU…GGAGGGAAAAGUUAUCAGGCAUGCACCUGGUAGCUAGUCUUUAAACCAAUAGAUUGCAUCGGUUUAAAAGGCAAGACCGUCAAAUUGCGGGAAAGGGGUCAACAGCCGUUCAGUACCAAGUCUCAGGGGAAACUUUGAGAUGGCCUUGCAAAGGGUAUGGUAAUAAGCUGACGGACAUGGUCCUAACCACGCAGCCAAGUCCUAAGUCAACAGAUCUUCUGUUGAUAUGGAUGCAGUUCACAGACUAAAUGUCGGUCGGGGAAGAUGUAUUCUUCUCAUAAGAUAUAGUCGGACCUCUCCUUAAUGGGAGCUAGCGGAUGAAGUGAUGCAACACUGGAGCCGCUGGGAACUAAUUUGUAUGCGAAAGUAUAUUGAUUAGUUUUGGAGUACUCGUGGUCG
Details: 37 °C
Measured Endpoint: self-splicing fitness (ln)

Chain Sequence	self-splicing fitness (ln)
GCGAAGCAAUAUUACGGACG	-0.969
UUAUAGCAAUAUUACGGAGC	-2.95
UGCGAGCAAUAUUACGACUG	-0.0696

Enquiry: Tell us which self-splicing fitness (ln) value is on record for GCACAGCAAUAUUACGCCCA
Return: -0.754

Enquiry: Tell us which self-splicing fitness (ln) value is on record for AUAAAGCAAUAUUACGCCAG
Return: -0.785

Enquiry: Please look at this sequence and report its self-splicing fitness (ln): AGAUAGCAAUAUUACGCUGU
Return: -3.22

* * *

Assay: self-splicing fitness, log relative to wild type (ln ratio); higher = more splicing; Tetrahymena group I intron in knt gene, E. coli kanamycin selection, DiMSum; sequences stand for … in CUCUCU…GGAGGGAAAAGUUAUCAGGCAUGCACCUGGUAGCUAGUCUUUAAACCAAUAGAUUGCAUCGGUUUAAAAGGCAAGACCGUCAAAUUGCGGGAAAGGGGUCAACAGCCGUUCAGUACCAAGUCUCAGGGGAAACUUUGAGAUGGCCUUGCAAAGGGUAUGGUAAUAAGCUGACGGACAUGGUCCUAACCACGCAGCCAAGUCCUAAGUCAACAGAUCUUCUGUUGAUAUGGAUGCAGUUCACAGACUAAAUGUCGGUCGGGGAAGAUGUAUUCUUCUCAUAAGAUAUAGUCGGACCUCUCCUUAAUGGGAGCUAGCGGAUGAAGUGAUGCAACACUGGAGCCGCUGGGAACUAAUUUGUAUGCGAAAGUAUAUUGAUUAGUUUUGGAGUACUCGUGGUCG
Settings: 30 °C
Recorded self-splicing fitness (ln) determines the group label, using zone 1: < -3; zone 2: ≥ -3 and < -1; zone 3: ≥ -1

The following sequences have reported results that may help.
Chain Sequence	Class
AUUGAGCAAUAUUACGAUGG	zone 2
GGGCAGCAAUAUUACGUUAA	zone 2
CAACAGCAAUAUUACGCAGU	zone 2
GGUAAGCAAUAUUACGGCUU	zone 3
AACGAGCAAUAUUACGGCAA	zone 2
UUUUAGCAAUAUUACGAACU	zone 2

For the next question, use this sequence.
Enquiry: Category of AGAUAGCAAUAUUACGGACA , please.
Return: zone 3

* * *

Test: self-splicing fitness, log relative to wild type (ln ratio); higher = more splicing; Tetrahymena group I intron in knt gene, E. coli kanamycin selection, DiMSum; sequences stand for … in CUCUCU…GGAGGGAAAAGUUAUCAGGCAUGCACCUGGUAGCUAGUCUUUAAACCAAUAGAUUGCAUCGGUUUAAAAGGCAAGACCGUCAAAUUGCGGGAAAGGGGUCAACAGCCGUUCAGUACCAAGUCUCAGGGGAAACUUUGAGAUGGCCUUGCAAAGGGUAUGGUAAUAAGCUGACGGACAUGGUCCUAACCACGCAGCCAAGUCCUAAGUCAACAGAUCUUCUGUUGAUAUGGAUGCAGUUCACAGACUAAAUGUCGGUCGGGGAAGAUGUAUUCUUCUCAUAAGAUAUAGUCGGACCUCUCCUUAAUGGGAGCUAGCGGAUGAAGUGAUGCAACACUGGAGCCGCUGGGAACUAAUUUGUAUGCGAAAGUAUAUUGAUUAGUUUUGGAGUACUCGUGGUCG
Conditions: 30 °C
# if value of self-splicing fitness (ln) reaches -3, tag Satisfied; if it stays below, tag Not satisfied

Enquiry: Check if self-splicing fitness (ln) >= -3 (inclusive). Item: AAGCAGCAAUAUUACGAUAU
Return: Satisfied

Enquiry: Answer whether self-splicing fitness (ln) of GCGAAGCAAUAUUACGGUCA is greater than or equal to -3.
Return: Satisfied

Enquiry: Say whether GAUCAGCAAUAUUACGGUCC shows self-splicing fitness (ln) of -3 or more.
Return: Not satisfied

Enquiry: Quick check, self-splicing fitness (ln) >= -3? AAUUAGCAAUAUUACGCACG
Return: Satisfied

* * *

Assay: self-splicing fitness, log relative to wild type (ln ratio); higher = more splicing; Tetrahymena group I intron in knt gene, E. coli kanamycin selection, DiMSum; sequences stand for … in CUCUCU…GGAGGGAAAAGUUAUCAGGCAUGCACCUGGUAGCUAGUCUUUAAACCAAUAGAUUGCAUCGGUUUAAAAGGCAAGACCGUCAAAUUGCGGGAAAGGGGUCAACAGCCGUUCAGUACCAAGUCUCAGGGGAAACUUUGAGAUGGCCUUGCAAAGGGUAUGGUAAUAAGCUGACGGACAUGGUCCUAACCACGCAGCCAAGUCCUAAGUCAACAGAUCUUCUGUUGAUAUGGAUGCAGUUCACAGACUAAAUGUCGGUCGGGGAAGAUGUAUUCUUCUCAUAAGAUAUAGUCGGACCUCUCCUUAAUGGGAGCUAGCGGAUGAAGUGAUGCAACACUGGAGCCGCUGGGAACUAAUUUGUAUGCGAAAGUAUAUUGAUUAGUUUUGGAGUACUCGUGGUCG
Conditions: 30 °C
Parameter threshold = -2. Response is satisfied when self-splicing fitness (ln) meets or exceeds it, else not satisfied.

Chain Sequence	Class
ACUAAGCAAUAUUACGACUU	satisfied
UAAGAGCAAUAUUACGGGGC	not satisfied
AUGUAGCAAUAUUACGUAUG	not satisfied

Here is the next item to consider.
Enquiry: Decide: is the reported value of self-splicing fitness (ln) for CGCGAGCAAUAUUACGGAUA equal to or greater than -2?
Return: satisfied

* * *

Assay: self-splicing fitness, log relative to wild type (ln ratio); higher = more splicing; Tetrahymena group I intron in knt gene, E. coli kanamycin selection, DiMSum; sequences stand for … in CUCUCU…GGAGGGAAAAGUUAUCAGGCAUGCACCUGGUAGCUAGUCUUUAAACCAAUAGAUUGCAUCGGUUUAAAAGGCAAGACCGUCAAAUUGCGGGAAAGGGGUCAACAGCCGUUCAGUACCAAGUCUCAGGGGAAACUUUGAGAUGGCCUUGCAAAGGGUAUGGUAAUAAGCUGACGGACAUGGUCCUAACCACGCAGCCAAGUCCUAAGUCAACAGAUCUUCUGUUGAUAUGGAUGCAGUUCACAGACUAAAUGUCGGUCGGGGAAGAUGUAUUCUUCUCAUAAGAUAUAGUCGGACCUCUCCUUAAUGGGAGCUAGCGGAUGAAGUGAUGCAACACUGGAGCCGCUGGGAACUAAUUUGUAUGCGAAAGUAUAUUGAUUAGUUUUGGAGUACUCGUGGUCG
Details: 30 °C
Measured Endpoint: self-splicing fitness (ln)
// no unit string in output, number only

Chain Sequence	self-splicing fitness (ln)
CGGCAGCAAUAUUACGCGGC	-2.84

Here is another sequence to look at.
Enquiry: Look up and report measured self-splicing fitness (ln) for this entry: AACGAGCAAUAUUACGUGAU
Return: -3.03
